Numbers sourced from paper PMC8126888.

experiment: in vitro; conditions: human
PARAMETER: CC50 at 3 days

Before answering, review these 5 worked examples.
Request: Reported CC50 at 3 days, molecule CCC(Cc1ccccc1)[S+]([O-])c1nc(C)cc(C)c1C#N (centres unmarked) : ____
Response: > 64 µM

Request: Reported CC50 at 3 days, molecule `O=S(=O)(NCc1ccccc1)c1ccccc1` : ____
Response: > 64 µM

Request: Reported CC50 at 3 days, molecule `COCCN(Cc1ccccc1)S(=O)(=O)c1c(OC)ccc(Cl)c1S(C)(=O)=O` : ____
Response: > 64 µM

Request: Reported CC50 at 3 days, molecule `CN(C)CCOc1ccc(F)cc1S(=O)(=O)N(Cc1ccc(F)cc1)Cc1ccc(F)cc1` : ____
Response: 7.62 µM

Request: Reported CC50 at 3 days, molecule `COc1ccc(OC)c(S(=O)(=O)N(CCO)Cc2ccccc2)c1` : ____
Response: > 64 µM

Could you tell me CC50 at 3 days for each of these molecules? They are listed below.
1. COCCNC(=O)c1ccc(OC)c(S(=O)(=O)N(Cc2ccc(F)cc2)Cc2ccc(F)cc2)c1
2. COc1ccc(OC)c(S(=O)(=O)n2cc(C)nc2-c2ccccc2)c1
3. CCCCC1Nc2cc(Cl)c(S(N)(=O)=O)cc2S(=O)(=O)N1Cc1ccccc1 (centres unmarked)
4. COCCOCN1CNc2cc(OC)c(S(=O)(=O)N(Cc3ccccc3)Cc3ccccc3)cc2S1(=O)=O
5. COc1ccc(C(=O)NC2COC2)cc1S(=O)(=O)N(Cc1ccc(F)cc1)Cc1ccc(F)cc1
6. COc1ccc(CN(Cc2ccc(F)cc2)S(=O)(=O)c2cc(F)ccc2OCC[N+](C)(C)CC(=O)O)cc1

Response:
["> 64 µM", "> 55.4 µM", "> 64 µM", "> 64 µM", "> 64 µM", "> 64 µM"]

Could you tell me CC50 at 3 days for each of these molecules? They are listed below.
1. NS(=O)(=O)c1cc2c(cc1Cl)NCN(Cc1ccccc1)S2(=O)=O
2. COc1ccc(Cl)cc1S(=O)(=O)N(CC(=O)N1CCCC1)Cc1ccccc1
3. O=S(=O)(c1cc(N2CCOCC2)ccc1OC(F)F)N(Cc1ccc(F)cc1)Cc1ccc(F)cc1
4. COc1ccc(C#N)cc1S(=O)(=O)N(Cc1ccccc1)Cc1cnc(C(F)(F)F)nc1
5. CCN(Cc1ccccc1)S(=O)(=O)c1ccccc1C#N

Response:
1: > 64 µM; 2: > 32 µM; 3: > 64 µM; 4: > 64 µM; 5: > 64 µM

Request: Reported CC50 at 3 days, molecule `COc1ccc(OC)c(S(=O)(=O)N(Cc2ccc(F)cc2)Cc2ccc(F)cc2)c1` : ____
Response: > 64 µM
